# Target Desc: CSK (h) (Homo sapiens, UniProt P41240)
# Construct: purchased Millipore
# Sequence (P41240 whole entry): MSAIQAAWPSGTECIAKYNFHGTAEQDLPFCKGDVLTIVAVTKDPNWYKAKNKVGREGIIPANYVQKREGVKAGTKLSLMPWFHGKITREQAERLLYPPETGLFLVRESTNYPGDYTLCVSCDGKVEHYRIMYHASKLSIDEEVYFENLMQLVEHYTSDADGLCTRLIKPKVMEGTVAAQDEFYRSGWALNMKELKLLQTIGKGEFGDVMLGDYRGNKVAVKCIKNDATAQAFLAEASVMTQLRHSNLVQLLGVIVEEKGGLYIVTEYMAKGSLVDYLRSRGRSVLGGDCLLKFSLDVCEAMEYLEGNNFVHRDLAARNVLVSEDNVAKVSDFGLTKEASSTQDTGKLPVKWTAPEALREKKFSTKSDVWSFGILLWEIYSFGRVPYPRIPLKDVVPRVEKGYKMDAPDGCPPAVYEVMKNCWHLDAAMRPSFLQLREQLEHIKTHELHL
# Measurement Notes: Kinase Profiling Assay
# Assay type: biochemical
# Experimental Parameters: 100 μM
Assay Readout: % activity (%)
Numbers only, in %.

# Construct Sequence, % activity (%)
records = [
    ("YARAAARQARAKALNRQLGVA (Mammalian) [MMI-0200]", 33),
    ("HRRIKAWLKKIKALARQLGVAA (Mammalian) [MMI-0500]", 2),
    ("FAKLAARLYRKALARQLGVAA [MMI-0300]", 49),
]

Memo: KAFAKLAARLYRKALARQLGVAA [MMI-0400] , reported % activity: 16

---

# Target Desc: EphB4 (h) (Homo sapiens)
# Sequence (P54760 16-987): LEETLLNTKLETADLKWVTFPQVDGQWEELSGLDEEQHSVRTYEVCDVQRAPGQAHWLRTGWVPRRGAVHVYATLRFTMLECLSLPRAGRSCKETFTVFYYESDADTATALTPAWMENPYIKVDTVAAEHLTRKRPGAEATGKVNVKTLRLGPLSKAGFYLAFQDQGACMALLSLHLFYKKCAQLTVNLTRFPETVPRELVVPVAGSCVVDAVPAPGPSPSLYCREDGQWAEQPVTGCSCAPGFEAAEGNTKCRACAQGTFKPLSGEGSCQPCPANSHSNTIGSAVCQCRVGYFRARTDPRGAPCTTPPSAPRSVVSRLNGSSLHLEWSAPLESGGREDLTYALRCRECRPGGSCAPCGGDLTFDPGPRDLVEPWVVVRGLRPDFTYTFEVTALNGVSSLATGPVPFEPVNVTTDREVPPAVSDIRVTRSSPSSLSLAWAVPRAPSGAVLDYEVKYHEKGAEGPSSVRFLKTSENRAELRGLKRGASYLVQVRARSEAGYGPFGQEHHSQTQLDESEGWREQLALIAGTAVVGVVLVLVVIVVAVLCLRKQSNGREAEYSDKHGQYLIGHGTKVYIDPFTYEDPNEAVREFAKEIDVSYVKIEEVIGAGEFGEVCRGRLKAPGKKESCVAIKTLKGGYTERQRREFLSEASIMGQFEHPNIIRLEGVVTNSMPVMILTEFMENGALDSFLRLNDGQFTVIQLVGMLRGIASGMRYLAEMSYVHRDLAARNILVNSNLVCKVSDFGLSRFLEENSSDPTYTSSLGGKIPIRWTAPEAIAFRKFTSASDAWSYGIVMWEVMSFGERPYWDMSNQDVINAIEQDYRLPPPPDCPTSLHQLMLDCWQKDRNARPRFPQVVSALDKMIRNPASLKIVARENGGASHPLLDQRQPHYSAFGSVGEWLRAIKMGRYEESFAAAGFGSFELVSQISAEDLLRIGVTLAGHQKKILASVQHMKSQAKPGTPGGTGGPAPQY
# Measurement Notes: Kinase Profiling Assay
# Assay type: biochemical
# Experimental Parameters: 100 μM
Assay Readout: % activity (%)
Numbers only, in %.

Answered cases to consult:
# Construct Sequence, % activity (%)
records = [
    ("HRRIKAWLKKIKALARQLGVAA (Mammalian) [MMI-0500]", 38),
    ("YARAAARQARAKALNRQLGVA (Mammalian) [MMI-0200]", 131),
    ("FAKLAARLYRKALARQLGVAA [MMI-0300]", 44),
]

Now turn to the next sequence.
The reported % activity of the sequence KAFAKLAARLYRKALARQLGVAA [MMI-0400] was 28

---

What % activity was measured for each of the following?
# Target Desc: NEK7 (h) (Homo sapiens, UniProt Q8TDX7)
# Construct: purchased Millipore
# Sequence (Q8TDX7 whole entry): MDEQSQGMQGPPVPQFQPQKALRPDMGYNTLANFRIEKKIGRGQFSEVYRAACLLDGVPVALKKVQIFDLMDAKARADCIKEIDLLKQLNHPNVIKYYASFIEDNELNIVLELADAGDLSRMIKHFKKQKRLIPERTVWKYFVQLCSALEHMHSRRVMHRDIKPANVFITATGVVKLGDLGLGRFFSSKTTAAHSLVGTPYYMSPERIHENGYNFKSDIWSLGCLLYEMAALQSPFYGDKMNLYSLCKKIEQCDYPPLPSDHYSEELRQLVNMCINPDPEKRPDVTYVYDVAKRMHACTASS
# Measurement Notes: Kinase Profiling Assay
# Type: biochemical
# Experimental Parameters: 100 μM
Give bare numbers, in %.

# Construct Sequence, Target Desc, % activity [%]
records = [
    ("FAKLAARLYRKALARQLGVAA [MMI-0300]", "NEK7 (h) (Homo sapiens, UniProt Q8TDX7)", 84),
    ("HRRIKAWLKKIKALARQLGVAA (Mammalian) [MMI-0500]", "NEK7 (h) (Homo sapiens, UniProt Q8TDX7)", 89),
    ("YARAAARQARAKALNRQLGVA (Mammalian) [MMI-0200]", "NEK7 (h) (Homo sapiens, UniProt Q8TDX7)", 96),
]

Consider the additional sequence presented here.
Briefly, % activity measured for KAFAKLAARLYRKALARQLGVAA [MMI-0400] : 87

---

# System: SGK (h)
# Measurement Notes: Kinase Profiling Assay
# Assay type: biochemical, human
# Experimental Parameters: 100 μM
# Procedure: Every kinase activity measurement was conducted in duplicate. Specifically, in these assays, a positively charged substrate is phosphorylated with a radiolabeled phosphate group from an ATP if the kinase is not inhibited by an inhibitor peptide. The positively charged substrate then is attracted to a negatively charged filter membrane, quantified with a scintillation counter, and compared to a 100% activity control. […]
Ends that are not written are not given here.
Tag: fulfilled if measured % activity is not below 50%, not fulfilled if it is.

Study these solved cases before continuing.
# Construct Sequence, Label Class
rows = [
    ("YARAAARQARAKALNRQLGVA (Mammalian) [MMI-0200]", "fulfilled"),
    ("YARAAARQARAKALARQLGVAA [MMI-0100]", "fulfilled"),
    ("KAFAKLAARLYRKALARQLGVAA [MMI-0400]", "fulfilled"),
    ("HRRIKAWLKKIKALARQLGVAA (Mammalian) [MMI-0500]", "not fulfilled"),
]

Q. Threshold query (% activity >= 50%) on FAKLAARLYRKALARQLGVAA [MMI-0300]
A. not fulfilled

---

# Target Desc: Met(D1246H) (h) (Homo sapiens, UniProt P08581, D1228H)
# Measurement Notes: Kinase Profiling Assay
# Format: biochemical
# Experimental Parameters: 100 μM
Please provide measured % activity for the entries that follow.
Numbers only, in %.

Before answering, review these 3 worked examples.
# Construct Sequence, Target Desc, Assay Readout, Val
records = [
    ("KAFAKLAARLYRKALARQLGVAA [MMI-0400]", "Met(D1246H) (h) (Homo sapiens, UniProt P08581, D1228H)", "% activity", 68),
    ("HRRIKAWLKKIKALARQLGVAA (Mammalian) [MMI-0500]", "Met(D1246H) (h) (Homo sapiens, UniProt P08581, D1228H)", "% activity", 150),
    ("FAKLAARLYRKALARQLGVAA [MMI-0300]", "Met(D1246H) (h) (Homo sapiens, UniProt P08581, D1228H)", "% activity", 125),
]

Record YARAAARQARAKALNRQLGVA (Mammalian) [MMI-0200] ; system Met(D1246H) (h) (Homo sapiens, UniProt P08581, D1228H); % activity = 139

---

I'd appreciate it if you could supply % activity values for the items below.
# Target Desc: MLK1 (h) (Homo sapiens, UniProt P80192)
# Construct: purchased Millipore
# Sequence (P80192 whole entry): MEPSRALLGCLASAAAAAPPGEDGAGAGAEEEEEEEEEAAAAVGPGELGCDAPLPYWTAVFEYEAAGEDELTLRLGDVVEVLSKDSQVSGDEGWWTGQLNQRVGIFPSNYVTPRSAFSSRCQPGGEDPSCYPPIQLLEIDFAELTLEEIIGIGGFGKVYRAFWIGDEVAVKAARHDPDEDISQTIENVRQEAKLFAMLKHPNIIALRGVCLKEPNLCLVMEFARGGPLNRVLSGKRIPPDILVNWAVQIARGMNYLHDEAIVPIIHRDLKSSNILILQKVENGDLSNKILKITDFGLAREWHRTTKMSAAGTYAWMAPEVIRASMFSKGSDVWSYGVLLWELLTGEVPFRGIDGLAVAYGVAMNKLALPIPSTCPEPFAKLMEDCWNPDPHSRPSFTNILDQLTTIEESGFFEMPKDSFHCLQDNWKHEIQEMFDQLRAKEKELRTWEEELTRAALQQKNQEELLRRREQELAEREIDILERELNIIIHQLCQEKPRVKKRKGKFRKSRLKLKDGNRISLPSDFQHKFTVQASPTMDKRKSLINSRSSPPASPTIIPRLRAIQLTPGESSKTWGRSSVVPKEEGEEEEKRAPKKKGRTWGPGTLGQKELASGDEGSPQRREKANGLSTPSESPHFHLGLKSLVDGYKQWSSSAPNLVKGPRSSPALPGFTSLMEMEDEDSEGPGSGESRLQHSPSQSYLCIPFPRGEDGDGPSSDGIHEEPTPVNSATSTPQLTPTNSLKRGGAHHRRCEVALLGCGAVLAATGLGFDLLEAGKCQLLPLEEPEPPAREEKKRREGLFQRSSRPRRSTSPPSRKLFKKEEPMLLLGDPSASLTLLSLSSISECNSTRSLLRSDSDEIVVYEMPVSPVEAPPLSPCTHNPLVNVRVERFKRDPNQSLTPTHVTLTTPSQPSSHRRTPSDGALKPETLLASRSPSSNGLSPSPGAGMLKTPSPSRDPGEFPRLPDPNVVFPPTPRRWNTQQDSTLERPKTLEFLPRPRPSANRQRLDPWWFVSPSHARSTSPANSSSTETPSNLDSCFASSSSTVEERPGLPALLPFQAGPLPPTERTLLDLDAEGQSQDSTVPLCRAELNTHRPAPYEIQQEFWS
# Measurement Notes: Kinase Profiling Assay
# Format: biochemical
# Experimental Parameters: 100 μM
# Experimental: Every kinase activity measurement was conducted in duplicate. Specifically, in these assays, a positively charged substrate is phosphorylated with a radiolabeled phosphate group from an ATP if the kinase is not inhibited by an inhibitor peptide. The positively charged substrate then is attracted to a negatively charged filter membrane, quantified with a scintillation counter, and compared to a 100% activity control. […]
One number for each entry, in %.

# Construct Sequence, % activity [%]
data = [
    ("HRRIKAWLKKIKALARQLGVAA (Mammalian) [MMI-0500]", 43),
    ("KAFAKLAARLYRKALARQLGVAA [MMI-0400]", 33),
    ("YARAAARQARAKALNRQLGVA (Mammalian) [MMI-0200]", 84),
]

Please find the next sequence below.
Form field % activity, entry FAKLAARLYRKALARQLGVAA [MMI-0300] : 40

---

# Target Desc: Arg (h) (Homo sapiens)
# Sequence (P42684 whole entry): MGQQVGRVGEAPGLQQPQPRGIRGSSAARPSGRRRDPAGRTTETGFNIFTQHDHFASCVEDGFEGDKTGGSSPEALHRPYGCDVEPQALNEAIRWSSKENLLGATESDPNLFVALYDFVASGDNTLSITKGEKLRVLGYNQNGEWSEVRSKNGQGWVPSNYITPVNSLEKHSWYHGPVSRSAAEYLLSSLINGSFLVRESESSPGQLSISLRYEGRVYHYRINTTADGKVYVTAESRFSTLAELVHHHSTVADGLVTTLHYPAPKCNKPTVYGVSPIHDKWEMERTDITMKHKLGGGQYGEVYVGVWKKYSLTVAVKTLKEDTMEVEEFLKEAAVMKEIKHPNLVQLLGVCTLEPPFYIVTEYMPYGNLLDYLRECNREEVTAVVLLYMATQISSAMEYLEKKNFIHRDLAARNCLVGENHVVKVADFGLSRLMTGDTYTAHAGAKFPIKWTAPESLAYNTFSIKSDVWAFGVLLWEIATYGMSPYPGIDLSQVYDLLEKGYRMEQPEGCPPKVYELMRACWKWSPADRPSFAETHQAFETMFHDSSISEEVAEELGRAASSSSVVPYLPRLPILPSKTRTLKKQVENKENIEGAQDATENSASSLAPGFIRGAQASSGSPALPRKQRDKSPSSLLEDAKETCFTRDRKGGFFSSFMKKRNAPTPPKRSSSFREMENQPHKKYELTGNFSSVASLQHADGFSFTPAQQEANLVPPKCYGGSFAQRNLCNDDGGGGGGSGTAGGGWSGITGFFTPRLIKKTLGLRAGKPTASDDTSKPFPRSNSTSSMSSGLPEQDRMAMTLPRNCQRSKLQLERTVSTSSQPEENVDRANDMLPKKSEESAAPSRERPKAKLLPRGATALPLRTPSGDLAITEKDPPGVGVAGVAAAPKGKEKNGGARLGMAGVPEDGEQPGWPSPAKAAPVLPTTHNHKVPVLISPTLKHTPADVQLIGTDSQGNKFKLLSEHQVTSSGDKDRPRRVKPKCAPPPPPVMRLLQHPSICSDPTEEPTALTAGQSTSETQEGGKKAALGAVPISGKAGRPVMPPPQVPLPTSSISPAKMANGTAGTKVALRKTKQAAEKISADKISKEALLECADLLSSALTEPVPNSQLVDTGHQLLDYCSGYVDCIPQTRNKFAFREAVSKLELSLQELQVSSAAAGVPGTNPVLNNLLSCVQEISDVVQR
# Measurement Notes: Kinase Profiling Assay
# Format: biochemical
# Experimental Parameters: 100 μM
Assay Readout: % activity (%)
One number for each entry, in %.

List % activity for every entry below, keeping the order given.
1. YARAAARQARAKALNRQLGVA (Mammalian) [MMI-0200]
2. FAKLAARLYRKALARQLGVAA [MMI-0300]

A.
1. 82
2. 72

Provide each entry's % activity from the list below.
1. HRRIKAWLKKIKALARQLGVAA (Mammalian) [MMI-0500]
2. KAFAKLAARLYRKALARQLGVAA [MMI-0400]

A.
1. 22
2. 84

---

Please respond with reported % activity for every item in the list.
# Target Desc: CaMKIV (h) (Homo sapiens, UniProt Q16566)
# Construct: purchased Millipore
# Sequence (Q16566 1-473): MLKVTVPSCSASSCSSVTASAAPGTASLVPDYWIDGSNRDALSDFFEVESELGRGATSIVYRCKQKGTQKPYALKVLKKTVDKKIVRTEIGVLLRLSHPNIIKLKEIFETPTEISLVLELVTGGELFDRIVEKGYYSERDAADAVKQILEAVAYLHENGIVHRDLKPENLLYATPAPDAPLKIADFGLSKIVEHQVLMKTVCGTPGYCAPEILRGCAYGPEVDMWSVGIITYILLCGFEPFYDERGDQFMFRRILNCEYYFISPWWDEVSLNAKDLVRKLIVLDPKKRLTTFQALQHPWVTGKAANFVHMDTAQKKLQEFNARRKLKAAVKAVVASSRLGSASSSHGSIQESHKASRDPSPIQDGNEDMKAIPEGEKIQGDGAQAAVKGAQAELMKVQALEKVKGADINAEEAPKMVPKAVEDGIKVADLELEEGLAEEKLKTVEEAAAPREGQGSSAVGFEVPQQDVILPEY
# Measurement Notes: Kinase Profiling Assay
# Format: biochemical
# Experimental Parameters: 100 μM
# Protocol: Every kinase activity measurement was conducted in duplicate. Specifically, in these assays, a positively charged substrate is phosphorylated with a radiolabeled phosphate group from an ATP if the kinase is not inhibited by an inhibitor peptide. The positively charged substrate then is attracted to a negatively charged filter membrane, quantified with a scintillation counter, and compared to a 100% activity control. […]
One number for each entry, in %.

Past entries and their recorded results:
# Construct Sequence, % activity [%]
data = [
    ("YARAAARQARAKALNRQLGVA (Mammalian) [MMI-0200]", 71),
    ("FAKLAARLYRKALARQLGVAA [MMI-0300]", 17),
    ("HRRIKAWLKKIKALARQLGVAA (Mammalian) [MMI-0500]", "−1"),
]

Please examine the following record next.
Note to self: % activity recorded for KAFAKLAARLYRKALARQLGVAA [MMI-0400] was 18
